Assay: logP determination by HPLC on a reverse phase column (C18), EEC Directive 79/831 Annex V.A8
Type: physicochemical
Settings: pH 2 as printed, HPLC C18, 43° C.
quantity_measured: chromatographic logP
# output: bare number, no unit

// query # get_value(readout='chromatographic logP', item= CC(C)S(=O)(=O)C(C)c1ccccc1[N+](=O)[O-] (stereo not shown) )
// result 1.99

----------
Experiment: logP determination by HPLC on a reverse phase column (C18), EEC Directive 79/831 Annex V.A8
Type: physicochemical
Details: HPLC C18, 43° C., Table 1
I'd appreciate it if you could supply logP (pH 2.3) values for the items below.
# output: bare number, no unit

// query # get_value(readout='logP (pH 2.3)', item= CCCC(C)SC(C)c1ccccc1NC(=O)c1c(C(F)(F)F)nn(C)c1F (racemic) )
// result 4.38

// query # get_value(readout='logP (pH 2.3)', item= Cc1nn(C)cc1C(=O)Nc1ccccc1C(C)SC(C)C (centres unmarked) )
// result 2.53

// query # get_value(readout='logP (pH 2.3)', item= Cc1occc1C(=O)Nc1ccccc1C(C)S(=O)(=O)C(C)C (centres unmarked) )
// result 2.21

// query # get_value(readout='logP (pH 2.3)', item= CC(C)S(=O)(=O)C(C)c1ccccc1NC(=O)c1ccccc1Cl (centres unmarked) )
// result 2.23

// query # get_value(readout='logP (pH 2.3)', item= Cc1nc(C(F)(F)F)c(C(=O)Nc2ccccc2C(C)S(=O)(=O)C(C)C)s1 (centres unmarked) )
// result 2.35

----------
I'd appreciate it if you could supply logP (pH 2.3) values for the items below.
Assay: logP determination by HPLC on a reverse phase column (C18), EEC Directive 79/831 Annex V.A8
Assay type: physicochemical
Conditions: HPLC C18, 43° C., Table 1

// query # get_value(readout='logP (pH 2.3)', item= COC(C)c1ccccc1NC(=O)c1ccccc1C(F)(F)F (racemic) )
// result 2.99

// query # get_value(readout='logP (pH 2.3)', item= CC(C)S(=O)(=O)C(C)c1ccccc1NC(=O)C1=C(C(F)(F)F)OCCS1 (stereo not drawn) )
// result 2.39

// query # get_value(readout='logP (pH 2.3)', item= CCC(C)SC(C)c1ccccc1NC(=O)c1ccccc1C(F)(F)F (stereo not drawn) )
// result 4.31

----------
Assay: logP determination by HPLC on a reverse phase column (C18), EEC Directive 79/831 Annex V.A8
Type: physicochemical
Settings: HPLC C18, 43° C., Table 1
Label Fulfilled when logP (pH 2.3) is strictly below 3; at or above that, label Not fulfilled.

// query Is logP (pH 2.3) of Cc1nn(C)c(F)c1C(=O)Nc1ccccc1C(C)SC1CCCC1 (centres unmarked) strictly below 3?
// result Not fulfilled

// query Is logP (pH 2.3) of CCC(C)SC(C)c1ccccc1NC(=O)c1cn(C)cc1C(F)(F)F (centres unmarked) strictly below 3?
// result Not fulfilled

// query Is logP (pH 2.3) of CC(C)OC(C)c1ccccc1NC(=O)c1cn(C)nc1C(F)F (centres unmarked) strictly below 3?
// result Fulfilled

// query Is logP (pH 2.3) of Cc1nc(C(F)(F)F)c(C(=O)Nc2ccccc2C(C)SC2CCCC2)s1 (centres unmarked) strictly below 3?
// result Not fulfilled

// query Is logP (pH 2.3) of CC(C)OC(C)c1ccccc1NC(=O)c1cccnc1Cl (centres unmarked) strictly below 3?
// result Fulfilled

// query Is logP (pH 2.3) of CC(C)OC(C)c1ccccc1NC(=O)c1cnn(C)c1C(F)F (centres unmarked) strictly below 3?
// result Not fulfilled

// query Is logP (pH 2.3) of CCCC(C)SC(C)c1ccccc1NC(=O)c1ccccc1C (racemic) strictly below 3?
// result Not fulfilled

// query Is logP (pH 2.3) of CC(C)SC(C)c1ccccc1NC(=O)c1ccccc1C(F)(F)F (centres unmarked) strictly below 3?
// result Not fulfilled

// query Is logP (pH 2.3) of CCC(C)SC(C)c1ccccc1NC(=O)c1ccccc1I (mixture of isomers) strictly below 3?
// result Not fulfilled

// query Is logP (pH 2.3) of `Cc1nn(C)c(F)c1C(=O)Nc1ccccc1CCOC(=O)C(C)C` strictly below 3?
// result Fulfilled

// query Is logP (pH 2.3) of CC(C)SC(C)c1ccccc1NC(=O)c1ccccc1Cl (centres unmarked) strictly below 3?
// result Not fulfilled

// query Is logP (pH 2.3) of CCC(C)SC(C)c1ccccc1NC(=O)c1sc(C)nc1C(F)F (centres unmarked) strictly below 3?
// result Not fulfilled

// query Is logP (pH 2.3) of CCCC(C)SC(C)c1ccccc1NC(=O)c1ccccc1I (mixture of isomers) strictly below 3?
// result Not fulfilled

// query Is logP (pH 2.3) of CC1=C(C(=O)Nc2ccccc2C(C)S(=O)(=O)C(C)C)SCCO1 (centres unmarked) strictly below 3?
// result Fulfilled

// query Is logP (pH 2.3) of CCC(C)SC(C)c1ccccc1NC(=O)C1=C(C)OCCS1 (centres unmarked) [compound 89] strictly below 3?
// result Not fulfilled

// query Is logP (pH 2.3) of `CC(C)SCc1ccccc1NC(=O)c1cn(C)nc1C(F)F` strictly below 3?
// result Fulfilled

----------
Experiment: logP determination by HPLC on a reverse phase column (C18), EEC Directive 79/831 Annex V.A8
Assay type: physicochemical
Conditions: HPLC C18, 43° C., Table 1
Protocol: The specified logP values are determined by HPLC on a reverse phase column (C18) in accordance with EEC Directive 79/831 Annex V.A8. Temperature: 43° C. Eluents for the measurement in the acid range (pH 2.3): 0.1% aqueous phosphoric acid, acetonitrile; linearer gradient of 10% acetonitrile to 90% acetonitrile. […]
Could you label it YES if measured logP (pH 2.3) is 3 or higher, and NO otherwise?

// query API: above_or_equal(metric=logP (pH 2.3), cutoff=3) for item CCC(C)SC(C)c1ccccc1NC(=O)c1c(C(F)(F)F)nn(C)c1F (racemic)
// result YES

// query API: above_or_equal(metric=logP (pH 2.3), cutoff=3) for item CCC(C)SC(C)c1ccccc1NC(=O)c1sc(C)nc1C(F)(F)F (mixture of isomers)
// result YES

// query API: above_or_equal(metric=logP (pH 2.3), cutoff=3) for item CC(C)S(=O)(=O)C(C)c1ccccc1NC(=O)c1ccccc1I (centres unmarked)
// result NO

// query API: above_or_equal(metric=logP (pH 2.3), cutoff=3) for item CCC(C)SC(C)c1ccccc1NC(=O)c1c(C)nn(C)c1F (mixture of isomers)
// result YES

// query API: above_or_equal(metric=logP (pH 2.3), cutoff=3) for item CCCC(C)SC(C)c1ccccc1NC(=O)c1c(C)nn(C)c1F (mixture of isomers)
// result YES

// query API: above_or_equal(metric=logP (pH 2.3), cutoff=3) for item `Cn1cc(C(=O)Nc2ccccc2COC(=O)C(Cl)Cl)c(C(F)(F)F)n1`
// result NO

// query API: above_or_equal(metric=logP (pH 2.3), cutoff=3) for item CCC(C)SC(C)c1ccccc1NC(=O)c1cn(C)nc1C (centres unmarked)
// result NO

// query API: above_or_equal(metric=logP (pH 2.3), cutoff=3) for item COC(C)c1ccccc1NC(=O)c1cn(C)nc1C(F)(F)F (racemic)
// result NO

// query API: above_or_equal(metric=logP (pH 2.3), cutoff=3) for item CC(C)SC(C)c1ccccc1NC(=O)C1=C(C(F)(F)F)OCCS1 (racemic)
// result YES

// query API: above_or_equal(metric=logP (pH 2.3), cutoff=3) for item CC(C)SC(C)c1ccccc1NC(=O)c1cn(C)nc1C(F)(F)F (centres unmarked)
// result YES

// query API: above_or_equal(metric=logP (pH 2.3), cutoff=3) for item CC(C)OC(C)c1ccccc1NC(=O)c1cn(C)nc1C(F)(F)F (centres unmarked)
// result YES

// query API: above_or_equal(metric=logP (pH 2.3), cutoff=3) for item Cc1occc1C(=O)Nc1ccccc1C(C)SC(C)C (centres unmarked)
// result YES

// query API: above_or_equal(metric=logP (pH 2.3), cutoff=3) for item Cc1nc(C(F)F)c(C(=O)Nc2ccccc2C(C)S(=O)(=O)C(C)C)s1 (centres unmarked)
// result NO

// query API: above_or_equal(metric=logP (pH 2.3), cutoff=3) for item CCCC(C)SC(C)c1ccccc1NC(=O)c1ccccc1C(F)(F)F (centres unmarked)
// result YES

// query API: above_or_equal(metric=logP (pH 2.3), cutoff=3) for item `CC(=O)OC(C)(C)CCc1ccccc1NC(=O)c1ccccc1C(F)(F)F`
// result YES

// query API: above_or_equal(metric=logP (pH 2.3), cutoff=3) for item CC(C)S(=O)(=O)C(C)c1ccccc1NC(=O)c1ccccc1Br (centres unmarked)
// result NO

// query API: above_or_equal(metric=logP (pH 2.3), cutoff=3) for item CCC(C)SC(C)c1ccccc1NC(=O)c1cn(C)nc1C(F)(F)F (mixture of isomers)
// result YES

// query API: above_or_equal(metric=logP (pH 2.3), cutoff=3) for item `CC(C)C(=O)OCc1ccccc1NC(=O)c1ccccc1C(F)(F)F`
// result YES

// query API: above_or_equal(metric=logP (pH 2.3), cutoff=3) for item `Cn1cc(C(=O)Nc2ccccc2CCOC(=O)C(Cl)Cl)c(C(F)(F)F)n1`
// result NO

// query API: above_or_equal(metric=logP (pH 2.3), cutoff=3) for item `O=C(Nc1ccccc1COC(=O)C(Cl)Cl)c1ccccc1C(F)(F)F`
// result YES

// query API: above_or_equal(metric=logP (pH 2.3), cutoff=3) for item Cc1nc(C(F)(F)F)c(C(=O)Nc2ccccc2C(C)SC(C)C)s1 (centres unmarked)
// result YES

// query API: above_or_equal(metric=logP (pH 2.3), cutoff=3) for item `Cn1cc(C(=O)Nc2ccccc2CO)c(C(F)(F)F)n1`
// result NO

// query API: above_or_equal(metric=logP (pH 2.3), cutoff=3) for item Cc1sccc1C(=O)Nc1ccccc1C(C)S(=O)(=O)C(C)C (centres unmarked)
// result NO

// query API: above_or_equal(metric=logP (pH 2.3), cutoff=3) for item `O=C(Nc1ccccc1COC(=O)C(Cl)Cl)c1cccnc1Cl`
// result NO
